Assay: Cytotoxicity (MTT assay)
Type: cell-based
Condition Summary: rhesus monkey; LLCMK2 cells, 72 h, MTT assay
Observable: CC50 at 72 h (µM)
I only need the number, in µM, no unit after it.

Some solved cases for reference:
| Chem Smiles | Value Unit | Recorded Number |
| --- | --- | --- |
| CCNc1cc2[s+]c3cc(NCC)c(C)cc3nc2cc1C | µM | 4.19 |
| Cc1cc(N(C)C)cc2[s+]c3cc(N(C)C)cc(C)c3nc12 | µM | 4.46 |
| CN(C)c1ccc2nc3ccc(=[N+](C)C)cc-3sc2c1 | µM | 16.8 |

# context switch: different molecule, same CC50 at 72 h
Looking up Cc1cc2nc3ccc(N(C)C)cc3[s+]c2cc1N , I found its CC50 at 72 h recorded as 7.93

Each recorded value in this set is attributed to paper PMC6637691.
